Data origin, for the record: the supplement of paper PMC11061612

# System: OVCAR-4 (Ovarian Carcinoma)
# Assay explanation: Bliss excess, mean over the matrix (fraction); higher = more synergy
Endpoint name: Bliss excess
// return just the number, without any unit appended

Query (compound): CC1(C)CCC(CN2CCN(c3ccc(C(=O)NS(=O)(=O)c4ccc(NCC5CCOCC5)c([N+](=O)[O-])c4)c(Oc4cnc5[nH]ccc5c4)c3)CC2)=C(c2ccc(Cl)cc2)C1 [Venetoclax] + C1CN(CCC1(C(=O)N[C@@H](CCO)C2=CC=C(C=C2)Cl)N)C3=NC=NC4=C3C=CN4 [Capivasertib] (first compound max 1 µM, 7x7, partner max 3 µM) ; field requested: Bliss excess
-0.0393

Query (compound): CC1(C)CCC(CN2CCN(c3ccc(C(=O)NS(=O)(=O)c4ccc(NCC5CCOCC5)c([N+](=O)[O-])c4)c(Oc4cnc5[nH]ccc5c4)c3)CC2)=C(c2ccc(Cl)cc2)C1 [Venetoclax] + C[C@@H]1COCCN1C2=NC(=NC(=C2)C3(CC3)[S@](=N)(=O)C)C4=C5C=CNC5=NC=C4 [AZD6738] (first compound max 1 µM, 7x7, partner max 10 µM) ; field requested: Bliss excess
-0.0384

Query (compound): COc1nnc2ccc(N3CCC(c4ccc(OCCN5CCN(C)C(=O)[C@H]5C)cc4)CC3)nn12 [AZD5153] + C[C@@H]1COCCN1C2=NC(=NC(=C2)C3(CC3)[S@](=N)(=O)C)C4=C5C=CNC5=NC=C4 [AZD6738] (first compound max 1 µM, 7x7, partner max 10 µM) ; field requested: Bliss excess
0.0127

----------
# Tested on: YH-13 (Glioblastoma)
# Assay explanation: Bliss excess, mean over the matrix (fraction); higher = more synergy
Endpoint name: Bliss excess

Query (molecule): COc1nnc2ccc(N3CCC(c4ccc(OCCN5CCN(C)C(=O)[C@H]5C)cc4)CC3)nn12 [AZD5153] + CCN(CCO)CCCOc1ccc2c(Nc3cc(CC(=O)Nc4cccc(F)c4)[nH]n3)ncnc2c1 [AZD2811] (first compound max 1 µM, 7x7, partner max 1 µM) ; field requested: Bliss excess
-0.0409

Query (molecule): Cc1c2c(nn1C)CSCc1cc(n(C)n1)CSc1cc(c3ccccc3c1)OCCCc1c(C(=O)O)n(C)c3c-2c(Cl)ccc13 [AZD5991] + CC1(C)CCC(CN2CCN(c3ccc(C(=O)NS(=O)(=O)c4ccc(NCC5CCOCC5)c([N+](=O)[O-])c4)c(Oc4cnc5[nH]ccc5c4)c3)CC2)=C(c2ccc(Cl)cc2)C1 [Venetoclax] (first compound max 1 µM, 7x7, partner max 1 µM) ; field requested: Bliss excess
-0.0433

Query (molecule): Cc1c2c(nn1C)CSCc1cc(n(C)n1)CSc1cc(c3ccccc3c1)OCCCc1c(C(=O)O)n(C)c3c-2c(Cl)ccc13 [AZD5991] + CN(C)CCCOc1ccc(-c2ccc3ncc4c(c3c2)n(C2CCOCC2)c(=O)n4C)cn1 [AZD0156] (first compound max 1 µM, 7x7, partner max 1 µM) ; field requested: Bliss excess
-0.0465

Query (molecule): C=CCn1c(=O)c2cnc(Nc3ccc(N4CCN(C)CC4)cc3)nc2n1-c1cccc(C(C)(C)O)n1 [AZD1775] + C[C@@H]1COCCN1C2=NC(=NC(=C2)C3(CC3)[S@](=N)(=O)C)C4=C5C=CNC5=NC=C4 [AZD6738] (first compound max 1 µM, partner max 10 µM) ; field requested: Bliss excess
-0.0142

Query (molecule): NC1(C(=O)N[C@@H](CCO)c2ccc(Cl)cc2)CCN(c2ncnc3[nH]ccc23)CC1 [Capivasertib] + CCN(CCO)CCCOc1ccc2c(Nc3cc(CC(=O)Nc4cccc(F)c4)[nH]n3)ncnc2c1 [AZD2811] (first compound max 10 µM, 7x7, partner max 1 µM) ; field requested: Bliss excess
-0.0317

----------
# Test system: TK10 (Kidney Carcinoma)
# Assay explanation: combination Emax (second highest fraction inhibited in the dose matrix, 72 h); higher = more inhibition; extreme values may be limits of the assay
Provide the reported combination Emax of each item.
// return just the number, without any unit appended

Identify the measured combination Emax of Cn1cnc2c(F)c(Nc3ccc(Br)cc3Cl)c(C(=O)NOCCO)cc21 [Selumetinib] + CCN(CCO)CCCOc1ccc2c(Nc3cc(CC(=O)Nc4cccc(F)c4)[nH]n3)ncnc2c1 [AZD2811] (first compound max 10 µM, 7x7, partner max 1 µM) for TK10 (Kidney Carcinoma).
0.327

Identify the measured combination Emax of CC1(C)CCC(CN2CCN(c3ccc(C(=O)NS(=O)(=O)c4ccc(NCC5CCOCC5)c([N+](=O)[O-])c4)c(Oc4cnc5[nH]ccc5c4)c3)CC2)=C(c2ccc(Cl)cc2)C1 [Venetoclax] + Cn1cnc2c(F)c(Nc3ccc(Br)cc3Cl)c(C(=O)NOCCO)cc21 [Selumetinib] (first compound max 1 µM, 7x7, partner max 3 µM) for TK10 (Kidney Carcinoma).
0.322

Identify the measured combination Emax of CC(=O)c1c(C)c2cnc(Nc3ccc(N4CCNCC4)cn3)nc2n(C2CCCC2)c1=O [Palbociclib] + Cn1cnc2c(F)c(Nc3ccc(Br)cc3Cl)c(C(=O)NOCCO)cc21 [Selumetinib] (first compound max 10 µM, 7x7, partner max 10 µM) for TK10 (Kidney Carcinoma).
0.427

Identify the measured combination Emax of COc1nnc2ccc(N3CCC(c4ccc(OCCN5CCN(C)C(=O)[C@H]5C)cc4)CC3)nn12 [AZD5153] + C=CCn1c(=O)c2cnc(Nc3ccc(N4CCN(C)CC4)cc3)nc2n1-c1cccc(C(C)(C)O)n1 [AZD1775] (first compound max 1 µM, partner max 1 µM) for TK10 (Kidney Carcinoma).
0.604

----------
Provide the reported combination Emax of each item.
# System: OVCAR-4 (Ovarian Carcinoma)
# Assay explanation: combination Emax (second highest fraction inhibited in the dose matrix, 72 h); higher = more inhibition; extreme values may be limits of the assay

Identify the measured combination Emax of COc1cc2c(cc1OCCCCCOc1cc3c(cc1OC)C(=O)N1C=C(C)C[C@H]1C=N3)N=C[C@@H]1CC(C)=CN1C2=O [SG3199] + O=C(c1cc(Cc2n[nH]c(=O)c3ccccc23)ccc1F)N1CCN(C(=O)C2CC2)CC1 [Olaparib] (first compound max 0.001 µM, 7x7, partner max 10 µM) for OVCAR-4 (Ovarian Carcinoma).
0.126

Identify the measured combination Emax of CC(=O)c1c(C)c2cnc(Nc3ccc(N4CCNCC4)cn3)nc2n(C2CCCC2)c1=O [Palbociclib] + CC1(C)CCC(CN2CCN(c3ccc(C(=O)NS(=O)(=O)c4ccc(NCC5CCOCC5)c([N+](=O)[O-])c4)c(Oc4cnc5[nH]ccc5c4)c3)CC2)=C(c2ccc(Cl)cc2)C1 [Venetoclax] (first compound max 10 µM, 7x7, partner max 1 µM) for OVCAR-4 (Ovarian Carcinoma).
0.0611

Identify the measured combination Emax of Cc1nc(Nc2ncc(C(=O)Nc3c(C)cccc3Cl)s2)cc(N2CCN(CCO)CC2)n1 [Dasatinib] + CC(=O)Nc1cccc(-n2c(=O)n(C3CC3)c(=O)c3c(Nc4ccc(I)cc4F)n(C)c(=O)c(C)c32)c1 [Trametinib] (first compound max 2 µM, 7x7, partner max 1 µM) for OVCAR-4 (Ovarian Carcinoma).
0.62

Identify the measured combination Emax of COc1cccc(OCCCN)c1-c1cc(Nc2cnc(C#N)cn2)n[nH]1 [Prexasertib] + O=C(c1cc(Cc2n[nH]c(=O)c3ccccc23)ccc1F)N1CCN(C(=O)C2CC2)CC1 [Olaparib] (first compound max 1 µM, 7x7, partner max 10 µM) for OVCAR-4 (Ovarian Carcinoma).
0.743

----------
Provide the reported combination Emax of each item.
# Tested on: EFM-19 (Breast Carcinoma)
# Assay explanation: combination Emax (second highest fraction inhibited in the dose matrix, 72 h); higher = more inhibition; extreme values may be limits of the assay
// return just the number, without any unit appended

Identify the measured combination Emax of CN(CCO)CC[C@H](CSc1ccccc1)Nc1ccc(S(=O)(=O)NC(=O)c2ccc(N3CCC([C@@H](O)c4ccccc4-c4ccc(Cl)cc4)CC3)cc2)cc1S(=O)(=O)C(F)(F)F [AZD4320] + CN(C)CCCOc1ccc(-c2ccc3ncc4c(c3c2)n(C2CCOCC2)c(=O)n4C)cn1 [AZD0156] (first compound max 1 µM, 7x7, partner max 1 µM) for EFM-19 (Breast Carcinoma).
0.797

Identify the measured combination Emax of CCc1c2c(nc3ccc(O)cc13)-c1cc3c(c(=O)n1C2)COC(=O)[C@]3(O)CC [SN-38] + CN(C)CCCOc1ccc(-c2ccc3ncc4c(c3c2)n(C2CCOCC2)c(=O)n4C)cn1 [AZD0156] (first compound max 0.3 µM, 7x7, partner max 1 µM) for EFM-19 (Breast Carcinoma).
0.482

Identify the measured combination Emax of CN(CCO)CC[C@H](CSc1ccccc1)Nc1ccc(S(=O)(=O)NC(=O)c2ccc(N3CCC([C@@H](O)c4ccccc4-c4ccc(Cl)cc4)CC3)cc2)cc1S(=O)(=O)C(F)(F)F [AZD4320] + Cc1cc2ncnn2cc1Nc1ncc2c(n1)n(C1CCOCC1)c(=O)n2C [AZD7648] (first compound max 1 µM, 7x7, partner max 10 µM) for EFM-19 (Breast Carcinoma).
0.735
